assay: Hygroscopicity (Dynamic Vapor Sorption, DVS) measurement; assay type: physicochemical; settings: relative humidity 90.0 %, 25° C.
observed.property: water (moisture) content by DVS
Quick note: number first, unit second.

Which water (moisture) content by DVS value is on record for C[C@H](Nc1ncnc2[nH]ccc(=O)c12)c1c(Cl)c2cccc(Cl)c2c(=O)n1-c1ccccc1 [Crystal form I] ? 0.46%

----------
experiment: Pharmacokinetic (PK) test, oral capsule in beagle dog; assay type: in vivo; settings: plasma, 100 mg oral, powder in capsule
observed.property: AUC(0-t) (ng·h/mL)
Hi! Could you send only the number? It should be in ng·h/mL, unit omitted.

What value of measured AUC(0-t) is listed for C[C@H](Nc1ncnc2[nH]ccc(=O)c12)c1c(Cl)c2cccc(Cl)c2c(=O)n1-c1ccccc1 [Crystal form I] ? 540

----------
experiment: Hygroscopicity (Dynamic Vapor Sorption, DVS) measurement; format: physicochemical; settings: relative humidity 40.0 %, 25° C.
observed.property: water (moisture) content by DVS (%)
Field: numeric (%). Do not append units.

// query water (moisture) content by DVS value for entry C[C@H](Nc1ncnc2[nH]ccc(=O)c12)c1c(Cl)c2cccc(Cl)c2c(=O)n1-c1ccccc1 [Crystal form I] 0.2

----------
test: Pharmacokinetic (PK) test, oral capsule in beagle dog; assay type: in vivo; conditions: plasma, 100 mg oral, powder in capsule
observed.property: AUC(0-inf)

# get_value(readout='AUC(0-inf)', item= C[C@H](Nc1ncnc2[nH]ccc(=O)c12)c1c(Cl)c2cccc(Cl)c2c(=O)n1-c1ccccc1 [Crystal form I] ) 559 ng·h/mL

----------
experiment: Hygroscopicity (Dynamic Vapor Sorption, DVS) measurement; type: physicochemical; details: relative humidity 0.0 %, 25° C.
observed.property: water (moisture) content by DVS
I'd appreciate it if you included the unit after the number.

Report water (moisture) content by DVS for C[C@H](Nc1ncnc2[nH]ccc(=O)c12)c1c(Cl)c2cccc(Cl)c2c(=O)n1-c1ccccc1 [Crystal form I] please. 0.01%

----------
experiment: Hygroscopicity (Dynamic Vapor Sorption, DVS) measurement; type: physicochemical; settings: relative humidity 50.0 %, 25° C.
observed.property: water (moisture) content by DVS

Recorded water (moisture) content by DVS for C[C@H](Nc1ncnc2[nH]ccc(=O)c12)c1c(Cl)c2cccc(Cl)c2c(=O)n1-c1ccccc1 [Crystal form I] , please? 0.24%

----------
test: Pharmacokinetic (PK) test, oral capsule in beagle dog; type: in vivo; settings: plasma, 100 mg oral, powder in capsule
observed.property: half-life (h)
Reply numerically in h, unit not repeated.

Which value of half-life has been reported for C[C@H](Nc1ncnc2[nH]ccc(=O)c12)c1c(Cl)c2cccc(Cl)c2c(=O)n1-c1ccccc1 [Crystal form I] in the records? 1.56

----------
assay: Hygroscopicity (Dynamic Vapor Sorption, DVS) measurement; format: physicochemical; conditions: relative humidity 60.0 %, 25° C.
observed.property: water (moisture) content by DVS (%)
Give just the numeric value; % need not be written.

What water (moisture) content by DVS value was documented for this molecule, C[C@H](Nc1ncnc2[nH]ccc(=O)c12)c1c(Cl)c2cccc(Cl)c2c(=O)n1-c1ccccc1 [Crystal form I] ? 0.28

----------
test: Hygroscopicity (Dynamic Vapor Sorption, DVS) measurement; type: physicochemical; details: relative humidity 20.0 %, 25° C.
observed.property: water (moisture) content by DVS (%)
Express it in %; write the number only.

Record request: water (moisture) content by DVS value, item C[C@H](Nc1ncnc2[nH]ccc(=O)c12)c1c(Cl)c2cccc(Cl)c2c(=O)n1-c1ccccc1 [Crystal form I] 0.11
